assay: Urinary excretion of phenolic metabolites after intake of the GCPE nutraceutical; settings: urine; week 8; mean ± SEM, n = 9
parameter measured: Cumulative urinary excretion, Total 0–24 h (µmol)
Answer in µmol, number only, no unit symbol.

compound	measured result
O=C(O)CCc1ccc(O)c(O)c1 [DHCA, 3-(3′,4′-Dihydroxyphenyl)propanoic acid]	31
O=C(O)c1cccc(O)c1 [3-Hydroxybenzoic acid]	1.0
COc1ccc(C=CC(=O)O)cc1O[C@@H]1O[C@H](C(=O)O)[C@@H](O)[C@H](O)[C@H]1O [iFA-3′-glucuronide, 4′-Methoxycinnamic acid-3′-glucuronide]	6
O=C(/C=C/c1ccc(O)c(O)c1)O[C@@H]1C[C@](O)(C(=O)O)C[C@@H](O)[C@H]1O [3-Caffeoylquinic acid]	0.18
COc1ccc(CCC(=O)O)cc1OS(=O)(=O)O [DHiFA-3′-sulfate]	2.6
COc1cc(/C=C/C(=O)O[C@@H]2C[C@@](O)(C(=O)O)C[C@@H](O)[C@@H]2O)ccc1O [5-Feruloylquinic acid]	1.5
O=C(/C=C/c1ccc(O)c(O)c1)O[C@@H]1C[C@@](O)(C(=O)O)C[C@@H](O)[C@@H]1O [5-Caffeoylquinic acid]	0.33
COc1cc(C=CC(=O)O)ccc1OC1OC(C(=O)O)C(O)C(O)C1O (stereo not drawn) [FA-4′-glucuronide, 3′-Methoxycinnamic acid-4′-glucuronide]	3.7
COc1cc(/C=C/C(=O)O[C@@H]2C[C@@](O)(C(=O)O)C[C@@H](O)[C@@H]2O)ccc1O [3-Feruloylquinic acid]	0.34
O=C(O)CCc1ccc(O)cc1 [DHCoA, 3-(4′-Hydroxyphenyl)propanoic acid]	6

query: Please give the measured Cumulative urinary excretion, Total 0–24 h for this compound: COc1cc(CCC(=O)OC2CC(O)(C(=O)O)CC(O)C2O)ccc1O (stereo not drawn) [3-Dihydroferuloylquinic acid]
result: 0.5

query: How about O=C(O)Cc1ccc(O)c(O)c1 [3′,4′-Dihydroxyphenylacetic acid] ?
result: 1.3

query: How about COc1ccc(/C=C/C(=O)NCC(=O)O)cc1O [IsoFeruloylglicine] ?
result: 0.6

query: How about COc1cc(CCC(=O)OC2C(O)CC(O)(C(=O)O)CC2O)ccc1O (stereo not drawn) [4-Dihydroferuloylquinic acid] ?
result: 0.05

###

assay: Urinary excretion of phenolic metabolites after intake of the GCPE nutraceutical; conditions: urine; week 0; mean ± SEM, n = 9
hey, just use yes if measured Cumulative urinary excretion, Total 0–24 h is less than 0.5 µmol, otherwise no

compound	category
O=C(O)c1cccc(O)c1 [3-Hydroxybenzoic acid]	no
COc1cc(/C=C/C(=O)O[C@@H]2C[C@@](O)(C(=O)O)C[C@@H](O)[C@@H]2O)ccc1O [3-Feruloylquinic acid]	yes
COc1cc(CCC(=O)OC2CC(O)(C(=O)O)CC(O)C2O)ccc1O (centres unmarked) [3-Dihydroferuloylquinic acid]	yes

query: Cumulative urinary excretion, Total 0–24 h strictly < 0.5 µmol for this compound? COc1cc(CCC(=O)OC2CC(O)(C(=O)O)CC(O)C2O)ccc1O (centres unmarked) [5-Dihydroferuloylquinic acid]
result: yes

###

Parameter Amount excreted in urine, 6-9 h: see the listing below.
assay: Urinary excretion of phenolic metabolites after intake of the GCPE nutraceutical; conditions: week 0, interval 6–9 h
Answer in µmol, number only, no unit symbol.

query: Please give the measured Amount excreted in urine, 6-9 h for this molecule: O=C(O)CCc1ccc(OS(=O)(=O)O)c(O)c1 [DHCA-4′-sulfate]
result: 0.5

query: How about O=C(/C=C/c1ccc(O)c(O)c1)OC1[C@H](O)CC(O)(C(=O)O)C[C@H]1O (some centres unmarked) ?
result: 0.03

###

Parameter log10(Amount excreted in urine, 9-11 h): see the listing below.
test: Urinary excretion of phenolic metabolites after intake of the GCPE nutraceutical; settings: week 8, interval 9–11 h
# values: log10(Amount excreted in urine, 9-11 h), units µmol

Some molecules with recorded log10(Amount excreted in urine, 9-11 h):
molecule	measured result
COc1ccc(C=CC(=O)O)cc1OS(=O)(=O)O [iFA-3′-sulfate, 4′-Methoxycinnamic acid-3′-sulfate]	-0.52
O=C(CCc1ccc(O)c(O)c1)OC1CC(O)(C(=O)O)CC(O)C1O (centres unmarked) [3-Dihydrocaffeoylquinic acid]	-1.52
COc1cc(CCC(=O)O)ccc1OS(=O)(=O)O [DHFA-4′-sulfate]	0.48
COc1ccc(C=CC(=O)O)cc1O[C@@H]1O[C@H](C(=O)O)[C@@H](O)[C@H](O)[C@H]1O [iFA-3′-glucuronide, 4′-Methoxycinnamic acid-3′-glucuronide]	0.00
O=C(/C=C/c1ccc(O)c(O)c1)O[C@@H]1C[C@](O)(C(=O)O)C[C@@H](O)[C@H]1O	-2.10

query: Please give the measured log10(Amount excreted in urine, 9-11 h) for this molecule: O=C(O)CCc1ccc(O[C@@H]2O[C@H](C(=O)O)[C@@H](O)[C@H](O)[C@H]2O)cc1 [DHCoA-4′-glucuronide, 3-(Phenyl)propanoic acid-4′-glucuronide]
result: -0.40

query: How about O=C(O)c1ccc(O)cc1 [4-Hydroxybenzoic acid] ?
result: -1.10

query: How about COc1ccc(/C=C/C(=O)O)cc1O [iFA, 3′-Hydroxy-4′-methoxycinnamic acid] ?
result: -0.89

###

assay: Plasma pharmacokinetics of phenolic metabolites after intake of the GCPE nutraceutical (LC-MS-QToF); settings: human, oral, 300 mg hydroxycinnamic acids, AUC0–24h, week 0
parameter measured: AUC(0-t) (µM·h)
Answer in µM·h, number only, no unit symbol.

Some molecules with recorded AUC(0-t):
molecule	AUC(0-t) [µM·h]
COc1cc(C(=O)O)ccc1O [4-Hydroxy-3-methoxybenzoic acid]	9
O=C(O)CCc1ccc(O)c(O)c1 [DHCA, 3-(3′,4′-Dihydroxyphenyl)propanoic acid]	2

query: Please give the measured AUC(0-t) for this molecule: `COc1ccc(CCC(=O)O)cc1O`
result: 0.5

query: How about O=C(O)c1cccc(O)c1 [3-Hydroxybenzoic acid] ?
result: 0.7

query: How about O=C(O)c1ccc(O)cc1 [4-Hydroxybenzoic acid] ?
result: 0.9

query: How about COc1ccc(/C=C/C(=O)O)cc1O [iFA, 3′-Hydroxy-4′-methoxycinnamic acid] ?
result: 0.025

query: How about `COc1cc(CCC(=O)O)ccc1O` ?
result: 2.2

query: How about COc1ccc(CCC(=O)O)cc1OC [Dihydrodimethoxycinnamic acid, 3-(3′,4′-Dimethoxyphenyl)propanoic acid] ?
result: 1.2

###

test: Plasma pharmacokinetics of phenolic metabolites after intake of the GCPE nutraceutical (LC-MS-QToF); settings: human, oral, 300 mg phenols, AUC0–24h, week 8
parameter measured: AUC(0-t) (µM·h)
Answer in µM·h, number only, no unit symbol.

query: Please give the measured AUC(0-t) for this compound: COc1ccc(/C=C/C(=O)O)cc1O [iFA, 3′-Hydroxy-4′-methoxycinnamic acid]
result: 0.043

###

experiment: Urinary excretion of phenolic metabolites after intake of the GCPE nutraceutical; conditions: week 8, interval 3–6 h
hey, just use True if measured Amount excreted in urine, 3-6 h is less than 0.2 µmol, otherwise False

Solved cases below.
compound	category
COc1cc(CC(=O)O)ccc1O [4′-Hydroxy-3′-methoxyphenylacetic acid]	False
COc1ccc(/C=C/C(=O)O)cc1O [iFA, 3′-Hydroxy-4′-methoxycinnamic acid]	False
COc1ccc(CCC(=O)O)cc1O[C@@H]1O[C@H](C(=O)O)[C@@H](O)[C@H](O)[C@H]1O [DHiFA-3′-glucuronide]	False
O=C(O)CCc1ccc(OS(=O)(=O)O)cc1 [DHCoA-4′-sulfate, 3-(Phenyl)propanoic acid-4′-sulfate]	False

query: Amount excreted in urine, 3-6 h strictly < 0.2 µmol for this compound? COc1ccc(C=CC(=O)O)cc1O[C@@H]1O[C@H](C(=O)O)[C@@H](O)[C@H](O)[C@H]1O [iFA-3′-glucuronide, 4′-Methoxycinnamic acid-3′-glucuronide]
result: False

query: How about O=C(O)Cc1cccc(O)c1 [3′-Hydroxyphenylacetic acid] ?
result: False

query: How about O=C(CCc1ccc(O)c(O)c1)OC1C(O)CC(O)(C(=O)O)CC1O (stereo not shown) [4-Dihydrocaffeoylquinic acid] ?
result: True

query: How about O=C(O)CNC(=O)c1ccc(O)cc1 [4′-Hydroxyhippuric acid] ?
result: False

query: How about O=C(/C=C/c1ccc(O)c(O)c1)OC1[C@H](O)CC(O)(C(=O)O)C[C@H]1O (stereo partly shown) ?
result: True

###

experiment: Plasma pharmacokinetics of phenolic metabolites after intake of the GCPE nutraceutical (LC-MS-QToF); settings: week 0, biphasic profile
parameter measured: Tmax, second peak (h)
Answer in h, number only, no unit symbol.

query: Please give the measured Tmax, second peak for this molecule: COc1cc(C=CC(=O)O)ccc1OS(=O)(=O)O [FA-4′-sulfate, 3′-Methoxycinnamic acid-4′-sulfate]
result: 6.8

query: How about COc1cc(C=CC(=O)O)ccc1OC1OC(C(=O)O)C(O)C(O)C1O (stereo not shown) [FA-4′-glucuronide, 3′-Methoxycinnamic acid-4′-glucuronide] ?
result: 4.7

query: How about O=C(O)C=Cc1ccc(OC2OC(C(=O)O)C(O)C(O)C2O)cc1 (stereo not shown) [CoA-4′-glucuronide, Cinnamic acid-4′-glucuronide] ?
result: 7.0

query: How about O=C(O)/C=C/c1ccc(OS(=O)(=O)O)cc1 [CoA-4′-sulfate, Cinnamic acid-4′-sulfate] ?
result: 6
